Tested on: Kochia (Kochia scoparia)
Test: Test A preemergence
Assay type: in vivo
Conditions: Bassia scoparia, pre-emergence, 240 h, 125 g ai/ha, Preemergence, visual injury rating after approximately 10 d; read-out: Kochia plant response rating (0 to 100 scale, 0 is no effect, 100 is complete control)
Recorded pest or weed control at 125 g/ha for the following molecules

# molecule, pest or weed control at 125 g/ha / %
rows = [
    ("CCOc1cccc([C@H]2CN(C)C(=O)[C@@H]2C(=O)Nc2ccc(F)cc2F)c1 [Compound 963]", 40),
    ("CC(C)Oc1cc([C@H]2CN(C)C(=O)[C@@H]2C(=O)Nc2cccc(F)c2F)cc(C(F)(F)F)c1 [Compound 972]", 0),
    ("CSc1ccccc1NC(=O)[C@H]1C(=O)N(C2CC2)CC[C@@H]1c1ccc(F)cc1 [Compound 1005]", 0),
    ("Cc1cc([C@H]2CNC(=O)[C@@H]2C(=O)Nc2ccccc2S(C)(=O)=O)ccc1C(F)(F)F [Compound 1041]", 30),
    ("O=C1NC[C@H](c2cc(C(F)(F)F)cs2)[C@H]1C(=O)Nc1cccc(F)c1F [Compound 961]", 70),
    ("CSc1ccccc1NC(=O)[C@H]1C(=O)N(C)C[C@@H]1c1cc(C)c(Br)c(C)c1 [Compound 1025]", 0),
    ("CSc1ccccc1NC(=O)[C@H]1C(=O)NC[C@@H]1c1ccc(C(F)(F)F)cn1 [Compound 1050]", 0),
    ("Cc1ccc([C@H]2CNC(=O)[C@@H]2C(=O)Nc2ccccc2F)cc1C [Compound 1033]", 0),
    ("CN1C[C@H](c2ccc(C(F)(F)F)cn2)[C@@H](C(=O)Nc2cccc(F)c2F)C1=O [Compound 1052]", 70),
]

The measurements presented in this section are drawn from patent US12077503B2.
